# EXPERIMENTAL TARGET: T1, TerR43-138 (Aspergillus terreus SBUG844, UniProt Q0D1P5 43-138)
# T1 sequence: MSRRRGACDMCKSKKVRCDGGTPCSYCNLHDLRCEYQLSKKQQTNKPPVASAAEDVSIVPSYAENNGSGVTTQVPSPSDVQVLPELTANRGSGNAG
# METHOD NOTES: SPR; molar ratio 0.92; SPR (Biacore 2000, SA-coated CM3 chip): 10 mM HEPES pH 7.4, 150 mM NaCl, 0.005% P20, 5 mM beta-mercaptoethanol, 1 uM ZnCl2, 25 C; protein 12.5-6400 nM; 1:1 model with mass transport
# CONDITION INFO: protein: recombinant; (pET-29a; mass used 10218 Da); label: biotin on one strand; 18 bp duplex
ASSAY READOUT: Kd (nM)
# output: bare number, implied unit nM

[Q] Query Kd for BS9 (dsDNA) DNA 1: GCTTCGGTAATTCGGTAA DNA 2: TTACCGAATTACCGAAGC
[A] 820
